Biological target: Recombinant human Gal3 (rhGal3) (TrueBinding, #QC200361) (human, UniProt P17931 2-250); further: test concentration or dose not given here
Assay: cell-based or functional assay
PROPERTY_NAME: % inhibition of IL-6 secretion
The answer should read as a number with its unit following.

Study these solved cases before continuing.
[[record]]
binder = "24D12.2H9 (antibody, human IgG4 S228P, kappa, V domains shown) VH: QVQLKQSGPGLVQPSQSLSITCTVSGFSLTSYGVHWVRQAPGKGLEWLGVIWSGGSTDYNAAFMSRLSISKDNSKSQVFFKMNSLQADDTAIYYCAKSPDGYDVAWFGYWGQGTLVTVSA VL: DIVMTQSHKFMSTSVGDRVSITCKASQDVRTAVAWYQQKPGQSPKLLIYWASTRHTGVPDRFTGSGSGTDFTLTLSNVQSEDLADYFCQQYSSYPWTFGGGTKLEIKR"
recorded_value = "22.3%"

[[record]]
binder = "TB001 (antibody, human IgG4 S228P, kappa, V domains shown) VH: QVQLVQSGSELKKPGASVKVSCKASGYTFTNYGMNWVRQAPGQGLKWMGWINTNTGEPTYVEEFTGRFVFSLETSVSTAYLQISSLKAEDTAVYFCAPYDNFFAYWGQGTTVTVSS VL: DIVLTQSPLSLPVTPGEPASISCRSSKSLLYKDGKTYLNWFLQKPGQSPQLLIYLMSTHASGVPDRFSGSGSGTDFTLKISRVEAEDVGVYYCQQLVDYPLTFGGGTKLEIKR"
recorded_value = "45.6%"


Continue with the binder presented below.
% inhibition of IL-6 secretion for 13A12.2E5 (antibody, mouse IgG2a, V domains shown) VH: QIQLVQSGPELKKPGETVKISCKTSGYKFKTYVMSWVKQAPGKALKWMGWINTYSGVPTYADDFKGRFAFSLETSASTAYLEIINLKNEDTATYFCARDGNYGDPMDYWGQGTSVTVSS VL: DVVMTQTPLTLSVAIGQPASISCKSSQSLLYTNGKTYLNWLLQRPGQSPKRLIYLLSKLDSGVPDRFSASGSGTDFTLKISRVEAEDLGVYYCLQSTHFPLTFGAGTKLEMKR is 39.4%
